Source of measurements: the supplement of paper PMC4466140

Provide the reported SPOT peptide array binding signal intensity of each item.
MEASUREMENT TARGET: CaBzz1-D1
PROCEDURE DETAILS: SPOT peptide array binding signal intensity (averaged, normalized) (arbitrary units (background-subtracted, floor 0; scale differs between SH3 domains)); higher = stronger binding of the SH3 domain to the peptide
Give your answer as a number; write no unit.

*Q* Please supply the value of reported SPOT peptide array binding signal intensity for the item RSLRKRPTSPSISGS
*A* 86

*Q* Identify measured SPOT peptide array binding signal intensity associated with NSVPIMPTLPPRPYI
*A* 103

*Q* Tell me SPOT peptide array binding signal intensity reported for AGKRRLPLVRFKASD
*A* 125

*Q* Tell me its SPOT peptide array binding signal intensity given KRKRRLPVSEDTNTK as the entry.
*A* 85
